These measurements were taken from patent US11180483B2.

# Test system: Bmi-1
# assay summary: Sandwich ELISA Assay (Bmi-1 ELISA) in HT-1080 cells
# Format: cell-based
quantity name: EC50

Solved entries (count: 3):
compound: Nc1cc(Nc2ccc(C(F)(F)F)cc2)nc(-n2c(C3CC3)nc3ncc(F)cc32)n1 [Cpd 92]
study target: Bmi-1
EC50: 10 to 100 nM
//
compound: COc1ccc(Nc2ccnc(-n3c(C(F)(F)F)nc4ccccc43)n2)cc1Cl [Cpd 42]
study target: Bmi-1
EC50: 10 to 100 nM
//
compound: Cc1nc2c(F)cccc2n1-c1nc(N)c(F)c(Nc2ccc(OC(F)F)c(F)c2)n1 [Cpd 136]
study target: Bmi-1
EC50: 10 to 100 nM

Asked: Fill blank: measured EC50 of the compound Cc1nc2ncccc2n1-c1nc(N)c(F)c(Nc2ccc(OC(F)F)c(F)c2)n1 [Cpd 139] is ____.
Given back: 100 to 3000 nM

Asked: Same again, this time with CCc1nc2cc(F)ccc2n1-c1nc(N)c(F)c(Nc2ccc(OC(F)F)cc2)n1 [Cpd 163]
Given back: 10 to 100 nM

Asked: Request: Cc1nc2cc(F)ccc2n1-c1nc(N)c(F)c(Nc2ccc(OC(F)F)cc2)n1 [Cpd 113]
Given back: 10 to 100 nM

Asked: Do the same for Cc1nc2ccccc2n1-c1nc(N)c(F)c(Nc2ccc3c(c2)OCO3)n1 [Cpd 203] please
Given back: 1 to 10 nM

Asked: Now try Cc1nc2ccc([N+](=O)[O-])cc2n1-c1nc(N)c(F)c(Nc2ccc(OC(F)F)cc2)n1 [Cpd 231] .
Given back: 100 to 3000 nM

Asked: Same lookup for Cc1nc2cc(C#N)ccc2n1-c1nc(N)c(F)c(Nc2ccc(Cl)cc2)n1 [Cpd 230] , please.
Given back: 100 to 3000 nM

Asked: Next: Cc1ccc(Nc2nc(-c3c(C(F)(F)F)nc4ccccn34)ncc2F)cc1 [Cpd 43]
Given back: 10 to 100 nM

Asked: Please give the result for Cc1ccc(Nc2ccnc(-c3c(-c4ccccc4)nc4ccc(F)cn34)n2)cc1 [Cpd 27] too.
Given back: 100 to 3000 nM

Asked: Item: Cc1nc2ccc(F)cn2c1-c1nc(N)c(F)c(Nc2ccc(Cl)cc2)n1 [Cpd 251]
Given back: 100 to 3000 nM

====

# Tested on: Bmi-1
# assay summary: Sandwich ELISA Assay (Bmi-1 ELISA) in HT-1080 cells
# Assay type: cell-based
EC50 values by entry

compound: CCc1nc2ccc(F)cc2n1-c1nc(N)cc(Nc2ccc(OC(F)F)cc2)n1
quantity name: EC50
endpoint result: 10 to 100 nM
//
compound: Cc1ccc(Nc2nc(-n3c(C)nc4ccc(F)cc43)nc(N)c2F)cc1
quantity name: EC50
endpoint result: 1 to 10 nM
//
compound: Cc1nc2ccccc2n1-c1nc(N)c(F)c(Nc2ccc(OC(F)F)cc2)n1
quantity name: EC50
endpoint result: 10 to 100 nM
//
compound: Cc1nc2ncc(Cl)cc2n1-c1nc(N)cc(Nc2ccc(C(F)(F)F)cc2)n1
quantity name: EC50
endpoint result: 10 to 100 nM
//
compound: CCc1nc2ccccc2n1-c1nc(N)c(F)c(Nc2ccc(C)cc2)n1
quantity name: EC50
endpoint result: 1 to 10 nM

Asked: Consider the compound `CCc1nc2ccc(F)cc2n1-c1nc(N)c(F)c(Nc2ccc(C(F)(F)F)cc2)n1` and give its measured EC50.
Given back: 10 to 100 nM

Asked: Check `CC(C)c1ccc(Nc2ccnc(-c3c(C(F)(F)F)nc4ccccn34)n2)cc1` too.
Given back: 100 to 3000 nM
